- System tested: T1, xMcm10-FL (Xenopus laevis, UniProt Q5EAW4 1-860)
- T1 sequence: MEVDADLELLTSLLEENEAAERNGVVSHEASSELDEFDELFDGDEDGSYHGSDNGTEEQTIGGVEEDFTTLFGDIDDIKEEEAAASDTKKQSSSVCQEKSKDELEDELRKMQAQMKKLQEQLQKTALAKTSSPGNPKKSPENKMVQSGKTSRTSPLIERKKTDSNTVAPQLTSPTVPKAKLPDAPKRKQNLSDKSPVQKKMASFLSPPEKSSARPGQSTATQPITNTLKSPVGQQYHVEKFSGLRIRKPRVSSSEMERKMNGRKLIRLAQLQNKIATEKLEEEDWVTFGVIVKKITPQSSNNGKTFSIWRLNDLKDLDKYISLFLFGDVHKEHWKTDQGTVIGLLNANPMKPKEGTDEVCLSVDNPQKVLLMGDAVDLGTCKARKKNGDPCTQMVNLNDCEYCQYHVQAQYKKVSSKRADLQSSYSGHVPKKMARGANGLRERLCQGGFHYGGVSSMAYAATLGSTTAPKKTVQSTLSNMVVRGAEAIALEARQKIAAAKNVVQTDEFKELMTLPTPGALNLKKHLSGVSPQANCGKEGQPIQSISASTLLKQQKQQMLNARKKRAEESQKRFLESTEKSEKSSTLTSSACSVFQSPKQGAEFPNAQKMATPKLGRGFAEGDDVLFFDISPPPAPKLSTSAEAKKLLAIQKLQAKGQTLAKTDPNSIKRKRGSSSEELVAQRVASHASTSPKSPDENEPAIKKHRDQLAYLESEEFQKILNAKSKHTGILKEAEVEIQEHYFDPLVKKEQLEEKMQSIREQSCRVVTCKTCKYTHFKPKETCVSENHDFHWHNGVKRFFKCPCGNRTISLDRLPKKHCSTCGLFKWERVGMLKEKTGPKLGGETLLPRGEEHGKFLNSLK
- Experiment summary: fluorescence polarization; FP: 20 mM Tris-HCl, 100 mM NaCl, 5% glycerol, 0.01% Triton, pH 7.5, RT 60 min, 12.5 nM probe (0.1% DMSO in HTS)
- Condition label: protein: recombinant; label: 5'-6-FAM; single strand
Measured metric: Kd (nM)
Answer in nM, number only, no unit symbol.

Exercise: Would you mind telling me what Kd value was observed for ATGGTAGGCA (ssDNA) [5'-6FAM 10-mer] ?
Key: 1100
